Test: chemical genetic growth profiling, strain panel (AID 1159580);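 further: tested at 20 µM; growth read once vehicle control cultures reached saturation at 30 °C; 1 = growth at the plate median or of vehicle wells; lower values mean less growth of the strain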
Conditions: S. cerevisiae deletion strains, growth OD, locus YNL322C, strain KRE1, hits give low values
Out of some 5,500 compounds screened, about 2,000 (36%) were called active. Inconclusive results (about 18%) are left out. This is one part of the list.
Hi there, I'd appreciate the recorded normalized growth for every entry that follows.

Recorded normalized growth for COc1ccccc1N1CCN(S(=O)(=O)c2ccc(C(F)(F)F)cc2)CC1 , please? 0.99 (inactive)

Recorded normalized growth for Cc1oc(-c2ccccc2)cc1C(=O)N1CCN(c2ccc(C(F)(F)F)cn2)CC1 , please? 0.984 (inactive)

Recorded normalized growth for O=S(=O)(c1ccc(Cl)c(Cl)c1)N1CCN(c2ccc(C(F)(F)F)cn2)CC1 , please? 1.01 (inactive)

Recorded normalized growth for C[C@]12C=CC(=O)C=C1CCC1C2C(=O)C[C@@]2(C)C1CC[C@]2(O)C(=O)CO (stereo not given in full) , please? 0.994 (inactive)

Recorded normalized growth for COC(=O)c1csc2c(C(F)(F)F)cc(N3CCN(S(=O)(=O)c4ccc(C)cc4)CC3)nc12 , please? 1 (inactive)
